Measured reduction of cell growth of A549 non-small cell lung cancer cells by item
Tested on: A549/ATCC
Assay: NCI60 one-dose screen, A549
Assay type: cell-based, human
Conditions: A549 cells; single concentration of 10 μM; NCI60 panel
Protocol: Anti-cancer activity screening of all compounds was performed by the NCI Developmental Therapeutics Program (DTP) through their NCI60 screening initiative. […] As of early 2007 all compounds submitted to the NCI 60 Cell screen are tested initially at a single high dose (10^-5 M) in the full NCI 60 cell panel. Only compounds which satisfy pre-determined threshold inhibition criteria in a minimum number of cell lines will progress to the full 5-dose assay. […]
Parameter: reduction of cell growth of A549 non-small cell lung cancer cells (%)

molecule="CC(C)C1C2=C(NCCN1C(=O)c1cccnc1)C(C)(C)N(Cc1ccccc1)C2=O (stereo not shown) [Compound 8f]" target_entity=A549/ATCC censor_symbol== reported_value=32
molecule="CC(C)C1C2=C(NCCN1C(=O)c1ccncc1)C(C)(C)N(Cc1ccccc1)C2=O (stereo not shown) [Compound 8e]" target_entity=A549/ATCC censor_symbol=< reported_value=5
molecule="CC(C)C1C2=C(NCCN1C(=O)C1CCCC1)C(C)(C)N(Cc1ccccc1)C2=O (stereo not shown) [Compound 8c]" target_entity=A549/ATCC censor_symbol== reported_value=24
molecule="CC1(C)C2=C(C(=O)N1Cc1ccccc1)C(c1ccco1)N(C(=O)C1CCC1)CCN2 (stereo not shown) [Compound 8m]" target_entity=A549/ATCC censor_symbol== reported_value=24

meta.source: patent US12252492B2
